tested on: CAL-12T; assay: relative viability (nuclei count vs DMSO), 5 days (fraction); higher = more cells survive; conditions: first compound 0.6325 µM
Listing of entries alongside the reported relative viability.
result-type: relative viability

Cc1csc(=NC2CCCCC2)n1/N=C/c1ccc(O)c(O)c1O [MIM1] + C[C@@H](Oc1cc(-c2cnn(C3CCNCC3)c2)cnc1N)c1c(Cl)ccc(F)c1Cl [Crizotinib] (partner 1 µM) : 0.676
CN1CCN(CCOc2cc(OC3CCOCC3)c3c(Nc4c(Cl)ccc5c4OCO5)ncnc3c2)CC1 [Saracatinib] + Nc1nc2[nH]cc(CCc3ccc(C(=O)N[C@@H](CCC(=O)O)C(=O)O)cc3)c2c(=O)[nH]1 [Pemetrexed] (partner 0.2 µM) : 1.33
CN1CCN(CCOc2cc(OC3CCOCC3)c3c(Nc4c(Cl)ccc5c4OCO5)ncnc3c2)CC1 [Saracatinib] + CS(=O)(=O)N1CCN(Cc2cc3nc(-c4cccc5[nH]ncc45)nc(N4CCOCC4)c3s2)CC1 [Pictilisib] (partner 1 µM) : 0.491
CN1CCN(CCOc2cc(OC3CCOCC3)c3c(Nc4c(Cl)ccc5c4OCO5)ncnc3c2)CC1 [Saracatinib] + COc1cccc2cc(-c3nc([C@H]4CC[C@H](C(=O)O)CC4)n4ncnc(N)c34)[nH]c12 [OSI-027] (partner 0.5 µM) : 1.08

###

tested on: NCI-H1993; test: relative viability (nuclei count vs DMSO), 5 days (fraction); higher = more cells survive; details: first compound 6.325 µM
Listing of entries alongside the reported relative viability.
result-type: relative viability

Cc1csc(=NC2CCCCC2)n1/N=C/c1ccc(O)c(O)c1O [MIM1] + CS(=O)(=O)CCNCc1ccc(-c2ccc3ncnc(Nc4ccc(OCc5cccc(F)c5)c(Cl)c4)c3c2)o1 [Lapatinib] (partner 2 µM) : 0.87
Cc1csc(=NC2CCCCC2)n1/N=C/c1ccc(O)c(O)c1O [MIM1] + Cc1nc(NC(=O)N2CCC[C@H]2C(N)=O)sc1-c1ccnc(C(C)(C)C(F)(F)F)c1 [Alpelisib] (partner 2 µM) : 0.724
Cc1csc(=NC2CCCCC2)n1/N=C/c1ccc(O)c(O)c1O [MIM1] + Cc1nc(Nc2ncc(C(=O)Nc3c(C)cccc3Cl)s2)cc(N2CCN(CCO)CC2)n1 [Dasatinib] (partner 0.075 µM) : 0.484

###

test system: EPLC-272H; assay: relative viability (nuclei count vs DMSO), 5 days (fraction); higher = more cells survive; conditions: first compound 0.001 µM
result-type: relative viability

Cc1cn(-c2cc(NC(=O)c3ccc(C)c(Nc4nccc(-c5cccnc5)n4)c3)cc(C(F)(F)F)c2)cn1 [Nilotinib] + NC(=O)Nc1cc(-c2cccc(F)c2)sc1C(=O)N[C@H]1CCCNC1 [AZD7762] (partner 0.2 µM) : 0.267
Cc1cn(-c2cc(NC(=O)c3ccc(C)c(Nc4nccc(-c5cccnc5)n4)c3)cc(C(F)(F)F)c2)cn1 [Nilotinib] + N=C(N)NC(=N)NCCc1ccccc1 [Phenformin] (partner 250 µM) : 0.305
Cc1cn(-c2cc(NC(=O)c3ccc(C)c(Nc4nccc(-c5cccnc5)n4)c3)cc(C(F)(F)F)c2)cn1 [Nilotinib] + Nc1nc2[nH]cc(CCc3ccc(C(=O)N[C@@H](CCC(=O)O)C(=O)O)cc3)c2c(=O)[nH]1 [Pemetrexed] (partner 0.2 µM) : 0.239
Cc1cn(-c2cc(NC(=O)c3ccc(C)c(Nc4nccc(-c5cccnc5)n4)c3)cc(C(F)(F)F)c2)cn1 [Nilotinib] + O=C(c1cc(Cc2n[nH]c(=O)c3ccccc23)ccc1F)N1CCN(C(=O)C2CC2)CC1 [Olaparib] (partner 8 µM) : 0.605

Provenance of the data: the supplement of paper PMC10307832
